Target: T1, Boi1, P38041
T1 sequence (P38041 1-86, looked up): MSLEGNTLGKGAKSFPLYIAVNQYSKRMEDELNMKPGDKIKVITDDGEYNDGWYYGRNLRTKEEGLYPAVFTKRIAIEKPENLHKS
Assay: SPOT array
Conditions: median of control spots 1162
// reported SPOT intensity per item
Lab note: jot the number down without any unit.

Past entries and their recorded results:
Binder: QQNRPLPQLPNRNNR
SPOT intensity: 1

Binder: RSKRLFPVRPMATAH
SPOT intensity: 0

Binder: GDHPKGPPPPPPPPD
SPOT intensity: 0

Binder: PHNPSPFFPPPDFND
SPOT intensity: 0

Binder: EREKALPPIPFTTTL
SPOT intensity: 0

Q: Requested read-out: SPOT intensity. Entry: VRVKKRPLIRPLNSS
Ans: 2

Q: Requested read-out: SPOT intensity. Entry: ILARAILTIPRVLDK
Ans: 0

Q: Requested read-out: SPOT intensity. Entry: TTAPALPSLPPPPLL
Ans: 0

Q: Requested read-out: SPOT intensity. Entry: IPSRPAPKPPSSASA
Ans: 0

Q: Requested read-out: SPOT intensity. Entry: RKNRAPPQRPRFNRE
Ans: 8
